Target: Bcl-2 protein (Recombinant Human Bcl-2 Protein) (Homo sapiens)
Construct: purchased Novus Biologicals NBP2-34889
Sequence (P10415 whole entry): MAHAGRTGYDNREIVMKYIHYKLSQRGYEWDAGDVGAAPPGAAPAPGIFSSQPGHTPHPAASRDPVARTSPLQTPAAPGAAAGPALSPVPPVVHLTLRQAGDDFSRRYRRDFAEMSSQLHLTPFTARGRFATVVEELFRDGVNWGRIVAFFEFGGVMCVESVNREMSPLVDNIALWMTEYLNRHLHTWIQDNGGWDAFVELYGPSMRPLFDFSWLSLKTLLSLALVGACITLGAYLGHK
Assay: AS-MS evaluation of binding of the Example 4 mixture library (1200 compounds/well) to Bcl-2, ASMS ratio (%)
Settings: replicate n = 2; mixture library; value belongs to the MS peak assigned to the compound
Quantity: ASMS ratio (%) n = 2
// note: answer is a bare numeric in %

Query: Look at this compound and give its reported ASMS ratio (%) n = 2. CCOc1cccc(-c2cnn(-c3cc(C(=O)N4CCN(c5ccc(C(=O)NS(=O)(=O)C(C)(C)C)cc5)CC4)cc(C(F)(F)F)c3)c2)c1 [Compound B2L043-01]
Reply: 0.0

Query: Look at this compound and give its reported ASMS ratio (%) n = 2. CCOc1cncc(-c2cc(OC)c(CN3CCN(c4ccc(C(=O)NS(=O)(=O)C(C)(C)C)cc4)CC3)c(OC)c2)c1 [Compound B2L060-01]
Reply: 0.0

Query: Look at this compound and give its reported ASMS ratio (%) n = 2. CCOc1cccc(C#Cc2cc(C(=O)N3CCN(c4ccc(C(=O)NS(C)(=O)=O)cc4)CC3)cc(C(F)(F)F)c2)c1 [Compound B2I041-01]
Reply: 0.0

Query: Look at this compound and give its reported ASMS ratio (%) n = 2. CCOc1cncc(-c2cc(CN3CCN(c4ccc(C(=O)NS(C)(=O)=O)nn4)CC3)cc(OC(C)C)c2)c1 [Compound B2I084-01]
Reply: −1.5

Query: Look at this compound and give its reported ASMS ratio (%) n = 2. CCOc1cncc(-c2ccc(CN3CCN(c4ccc(C(=O)NS(=O)(=O)C(C)(C)C)cc4)CC3)c3ccccc23)c1 [Compound B2L066-01]
Reply: 0.0

Query: Look at this compound and give its reported ASMS ratio (%) n = 2. CCOc1cncc(-c2cc(CN3CCN(c4ccc(C(=O)NS(=O)(=O)C(C)(C)C)cc4)CC3)cc(OC(C)C)c2)c1 [Compound B2L058-01]
Reply: 0.0

Query: Look at this compound and give its reported ASMS ratio (%) n = 2. CCOc1cccc(-c2cc(CN3CCN(c4ccc(C(=O)NS(=O)(=O)C(C)(C)C)cc4)CC3)cc(OCC)c2)c1 [Compound B2L055-01]
Reply: 0.0

Query: Look at this compound and give its reported ASMS ratio (%) n = 2. CCOc1cncc(-c2cnn(-c3cc(C(=O)N4CCN(c5ccc(C(=O)NS(=O)(=O)C(C)(C)C)cc5)CC4)cc(C(F)(F)F)c3)c2)c1 [Compound B2L044-01]
Reply: 0.0

Query: Look at this compound and give its reported ASMS ratio (%) n = 2. CCOc1cccc(C#Cc2ccccc2C(=O)N2CCN(c3ccc(C(=O)NS(=O)(=O)C(C)(C)C)nn3)CC2)c1 [Compound B2L007-01]
Reply: −1.0

Query: Look at this compound and give its reported ASMS ratio (%) n = 2. CCOc1cccc(-c2ccc(CN3CCN(c4ccc(C(=O)NS(=O)(=O)C(C)(C)C)nn4)CC3)c(CC)c2)c1 [Compound B2L075-01]
Reply: 33.9

Query: Look at this compound and give its reported ASMS ratio (%) n = 2. CCOc1cccc(-c2cc(CN3CCN(c4ccc(C(=O)NS(C)(=O)=O)cc4)CC3)cc(OC(C)C)c2)c1 [Compound B2I057-01]
Reply: 0.0

Query: Look at this compound and give its reported ASMS ratio (%) n = 2. CCOc1cccc(-c2ccc(CN3CCN(c4ccc(C(=O)NS(C)(=O)=O)cc4)CC3)c(OC)c2)c1 [Compound B2I053-01]
Reply: 0.0

Query: Look at this compound and give its reported ASMS ratio (%) n = 2. CCOc1cccc(-c2ccc(CN3CCN(c4ccc(C(=O)NS(=O)(=O)C(C)(C)C)cc4)CC3)cc2F)c1 [Compound B2L051-01]
Reply: 0.0

Provenance of the data: patent US20250154686A1
